Source listed as patent US20240425523A1.

Imax (%) for assorted compounds
- target.under.test: p-EGFR Del19/C797S (H1975-clone #23 cells) (Homo sapiens)
- experimental.protocol: Cell p-EGFR inhibition assay, HTRF, H1975-clone#23 (DEL19/C797S) cells
- Type: cell-based
- run.conditions: 16 h treatment, maximum percentage of pEGFR inhibition
Just the number in %, nothing appended.

Sample answers from the record:
Cc1cc2cc(n1)-c1c(C)nn(C)c1OC[C@H]1CC[C@H](C1)CN1/C(=N/C2=O)Nc2ccc(N3CC4CCC3CN4C3CCN(c4cc(F)c([C@H]5CCC(=O)NC5=O)c(F)c4)CC3)cc21
100.43
Cc1cc2cc(n1)-c1c(C)nn(C)c1OC[C@H]1CCC(C1)CN1/C(=N/C2=O)Nc2ccc(N3CCN(C4CCN(c5cc(F)c([C@H]6CCC(=O)NC6=O)c(F)c5)CC4)CC3)cc21
101.2
Cc1cc2cc(n1)-c1c(C)nn(C)c1OC[C@H]1CC[C@H](C1)CN1/C(=N/C2=O)Nc2ccc(N3CCN(C4CCN(c5cc(F)c([C@H]6CCC(=O)NC6=O)c(F)c5)CC4)C[C@@H]3CF)cc21
99.96
Cc1cc2cc(n1)-c1cnn(C)c1OC[C@H]1CCC(C1)CN1/C(=N/C2=O)Nc2ccc(N3CCN(C4CCN(c5cc(F)c([C@H]6CCC(=O)NC6=O)c(F)c5)CC4)C[C@@H]3CO)cc21
101.2

Entry Cc1cc2cc(n1)-c1cnn(C)c1OC[C@H]1CC[C@H](C1)CN1/C(=N/C2=O)Nc2ccc(N3CCN(C4CCN(c5ccc(NC6CCC(=O)NC6=O)cc5F)CC4)CC3)cc21 (stereo partly shown) : Imax (%) on p-EGFR Del19/C797S (H1975-clone #23 cells) (Homo sapiens) = 99.6

Entry COC[C@@H]1CN(c2ccc3c(c2)N2CC4CC[C@H](COc5c(cnn5C)-c5cc(cc(C)n5)C(=O)/N=C/2N3)C4)CCN1C1CCN(c2c(F)cc(NC3CCC(=O)NC3=O)cc2F)CC1 (stereo partly shown) : Imax (%) on p-EGFR Del19/C797S (H1975-clone #23 cells) (Homo sapiens) = 100.3

Entry COC[C@H]1CN(c2ccc3c(c2)N2C[C@@H]4CC[C@H](COc5c(c(C)nn5C)-c5cc(cc(C)n5)C(=O)/N=C/2N3)C4)CCN1C1CCN(c2ccc(OC3CCC(=O)NC3=O)cc2C)CC1 (stereo partly shown) : Imax (%) on p-EGFR Del19/C797S (H1975-clone #23 cells) (Homo sapiens) = 101.57

---

- target.under.test: p-EGFR L858R (BaF3-L858R cells) (Homo sapiens, UniProt P00533, L858R)
- experimental.protocol: Cell p-EGFR inhibition assay, HTRF, BaF3-L858R cells
- run.conditions: 16 h treatment, pEGFR inhibition
endpoint: pIC50
Worth noting: pIC50 values are minus log10 of concentrations stated in mol/L.

Sample answers from the record:
Cc1cc2cc(n1)-c1cnn(C)c1OC[C@H]1CCC(C1)CN1/C(=N/C2=O)Nc2ccc(N3CCC4(CC3)CN(C3CCN(c5cc(F)c([C@H]6CCC(=O)NC6=O)c(F)c5)CC3)C4)cc21
7.81
COC[C@H]1CN(c2ccc3c(c2)N2CC4CC[C@H](COc5c(cnn5C)-c5cc(cc(C)n5)C(=O)/N=C/2N3)C4)CCN1C1CCN(c2cc(F)c(C3CCC(=O)NC3=O)nc2C)CC1 (stereo partly drawn)
8.19

Then there is this compound:
Consider COC[C@H]1CN(c2ccc3c(c2)N2C[C@@H]4CC[C@H](COc5c(cnn5C)-c5cc(cc(C)n5)C(=O)/N=C/2N3)C4)CCN1C1CCN(c2ccc(C3CCC(=O)NC3=O)nc2C)CC1 (stereo partly drawn) . Its measured pIC50 is 8.55

---

- target.under.test: EGFR-L858R/C797S (H1975-clone #8 cells) (Homo sapiens, UniProt P00533, C797S/L858R)
- Construct: expressed in transfected cells; host or cells: H1975 (endogenous EGFR knocked out, clone #8)
- experimental.protocol: Cell degradation of EGFR, HTRF assay, H1975-clone#8 (L858R/C797S) cells
- Type: cell-based
- run.conditions: 16 h treatment, maximum percentage of degradation
endpoint: Dmax (%)
Just the number in %, nothing appended.

Cc1cc2cc(n1)-c1c(C)nn(C)c1OC[C@H]1CCC(C1)CN1/C(=N/C2=O)Nc2ccc(N3CCN([C@@H]4CCN(c5cc(F)c(C6CCC(=O)NC6=O)nc5C)C[C@@H]4F)CC3)cc21 (stereo partly shown) [Example 82]
89.2
COC[C@@H]1CN(c2ccc3c(c2)N2C[C@@H]4CC[C@H](COc5c(c(C)nn5C)-c5cc(cc(C)n5)C(=O)/N=C/2N3)C4)CCN1C1CCN(c2cc(F)c(C3CCC(=O)NC3=O)nc2C)CC1 (stereo partly shown) [Example 89]
87.5
COC[C@H]1CN(c2ccc3c(c2)N2C[C@@H]4CC[C@H](COc5c(c(C)nn5C)-c5cc(cc(C)n5)C(=O)/N=C/2N3)C4)CCN1C1CCN(c2c(C)cc(NC3CCC(=O)NC3=O)nc2C)CC1 (stereo partly shown) [Example 159]
81.3
Cc1cc2cc(n1)-c1c(C)nn(C)c1OC[C@H]1CC[C@H](C1)CN1/C(=N/C2=O)Nc2ccc(N3C[C@H](C)N(C4CCN(c5cc(F)c([C@H]6CCC(=O)NC6=O)c(F)c5)CC4)C[C@@H]3C)cc21 [Example 197]
89.7
Cc1nn(C)c2c1-c1cc(cc(Cl)n1)C(=O)/N=C1\Nc3ccc(N4CCN(C5CCN(c6cc(F)c([C@H]7CCC(=O)NC7=O)c(F)c6)CC5)CC4)cc3N1C[C@@H]1CC[C@H](CO2)C1 [Example 179]
89.6
COC[C@H]1CN(c2ccc3c(c2)N2CC4CC[C@H](COc5c(c(C(F)(F)F)nn5C)-c5cc(cc(C)n5)C(=O)/N=C/2N3)C4)CCN1C1CCN(c2cc(F)c([C@H]3CCC(=O)NC3=O)c(F)c2)CC1 [Example 95]
79

Then there is this compound:
Consider Cc1cc2cc(n1)-c1c(C)nn(C)c1OC[C@H]1CC[C@H](C1)CN1/C(=N/C2=O)Nc2ccc(N3C[C@@H](C)N(C4CCN(c5cc(F)c([C@H]6CCC(=O)NC6=O)c(F)c5)CC4)C[C@H]3C)cc21 [Example 196] . Its measured Dmax is 88.8

---

- target.under.test: EGFR L858R (BaF3-L858R cells) (Homo sapiens, UniProt P00533, L858R)
- Construct: host or cells: BaF3
- experimental.protocol: Cell degradation of EGFR, HTRF assay, BaF3-L858R cells
- Format: cell-based
- run.conditions: 16 h treatment, EGFR degradation
log10 DC50 for assorted compounds
A difference of one corresponds to tenfold DC50; all values are log10 with DC50 in nM.

Sample answers from the record:
Cc1cc2cc(n1)-c1cnn(C)c1OC[C@H]1CCC(C1)CN1/C(=N/C2=O)Nc2ccc(N3CC(N(C)C4CCN(c5cc(F)c([C@H]6CCC(=O)NC6=O)c(F)c5)CC4)C3)cc21 [Example 124]
0.55
Cc1cc2cc(n1)-c1cnn(C)c1OC[C@H]1CCC(C1)CN1/C(=N/C2=O)Nc2ccc(N3CCN([C@H]4CCN(c5ccc(C6CCC(=O)NC6=O)nc5C)C[C@@H]4F)CC3)cc21 (stereo partly drawn) [Example 76]
0.51
Cc1cc2cc(n1)-c1cnn(C)c1OC[C@H]1CC[C@H](C1)CN1/C(=N/C2=O)Nc2ccc(N3CCN([C@@H]4CCN(c5cccc6c5C(C)(C)C(=O)N6C5CCC(=O)NC5=O)C[C@@H]4F)CC3)cc21 (stereo partly drawn) [Example 11]
-0.08
COC[C@@H]1CN(c2ccc3c(c2)N2C[C@@H]4CC[C@H](COc5c(cnn5C)-c5cc(cc(C)n5)C(=O)/N=C/2N3)C4)CCN1CC1CN(c2ccc3c(c2)C(=O)N(C2CCC(=O)NC2=O)C3=O)C1 (stereo partly drawn) [Example 69]
0.51
Cc1cc2cc(n1)-c1cnn(C)c1OC[C@H]1CCC(C1)CN1/C(=N/C2=O)Nc2ccc(N3CCC4(CC3)CN(C3CCN(c5cc(F)c([C@H]6CCC(=O)NC6=O)c(F)c5)CC3)C4)cc21 [Example 120]
0.50
Cc1cc2cc(n1)-c1cnn(C)c1OC[C@H]1CC[C@H](C1)CN1/C(=N/C2=O)Nc2ccc(N3CCN(C4CCN(c5cccc6c5C(C)(C)C(=O)N6C5CCC(=O)NC5=O)CC4)CC3)cc21 (stereo partly drawn) [Example 5]
0.00
Cc1cc2cc(n1)-c1c(C)nn(C)c1OC[C@H]1CC[C@H](C1)CN1/C(=N/C2=O)Nc2ccc(N3CCN(C4CCN(c5cc(F)c([C@H]6CCC(=O)NC6=O)c(F)c5)CC4)C[C@@H]3C)cc21 [Example 195]
0.26
CC[C@@H]1CN(c2ccc3c(c2)N2C[C@@H]4CC[C@H](COc5c(c(C)nn5C)-c5cc(cc(C)n5)C(=O)/N=C/2N3)C4)CCN1C1CCN(c2cc(F)c([C@H]3CCC(=O)NC3=O)c(F)c2)CC1 [Example 188]
0.62

Entry Cc1cc2cc(n1)-c1cnn(C)c1OC[C@H]1CCC(C1)CN1/C(=N/C2=O)Nc2ccc(N3CCN(C4CCN(c5ccc(NC6CCC(=O)NC6=O)nc5C)CC4)CC3)cc21 (stereo partly drawn) [Example 98] : log10 DC50 on EGFR L858R (BaF3-L858R cells) (Homo sapiens, UniProt P00533, L858R) = 0.41

Entry Cc1cc2cc(n1)-c1c(C)nn(C)c1OC[C@H]1CC[C@H](C1)CN1/C(=N/C2=O)Nc2ccc(N3CCN(C4CCN(c5cc(F)c([C@H]6CCC(=O)NC6=O)c(F)c5)CC4)[C@@H](CC#N)C3)cc21 [Example 163] : log10 DC50 on EGFR L858R (BaF3-L858R cells) (Homo sapiens, UniProt P00533, L858R) = 0.64

Entry Cc1cc2cc(n1)-c1c(C)nn(C)c1OC[C@H]1CC[C@H](C1)CN1/C(=N/C2=O)Nc2ccc(N3CCN(C4CCN(c5cc(F)c([C@H]6CCC(=O)NC6=O)c(F)c5)CC4)C[C@H]3CF)cc21 [Example 202] : log10 DC50 on EGFR L858R (BaF3-L858R cells) (Homo sapiens, UniProt P00533, L858R) = 0.03

Entry Cc1cc2cc(n1)-c1c(C)nn(C)c1OC[C@H]1CCC(C1)CN1/C(=N/C2=O)Nc2ccc(N3CCC(N(C)C4CCN(c5cc(F)c([C@H]6CCC(=O)NC6=O)c(F)c5)CC4)CC3)cc21 [Example 136] : log10 DC50 on EGFR L858R (BaF3-L858R cells) (Homo sapiens, UniProt P00533, L858R) = 0.55

Entry Cc1cc2cc(n1)-c1cnn(C)c1OC[C@H]1CCC(C1)CN1/C(=N/C2=O)Nc2ccc(N3CCN([C@H]4CCN(c5ccc(C6CCC(=O)NC6=O)nc5C)CC4(F)F)CC3)cc21 (stereo partly drawn) [Example 83] : log10 DC50 on EGFR L858R (BaF3-L858R cells) (Homo sapiens, UniProt P00533, L858R) = 0.61

Entry Cc1cc2cc(n1)-c1cnn(C)c1OC[C@H]1CCC(C1)CN1/C(=N/C2=O)Nc2ccc(N3CCN(C4(CO)CCN(c5ccc(C6CCC(=O)NC6=O)nc5C)CC4)CC3)cc21 (stereo partly drawn) [Example 114] : log10 DC50 on EGFR L858R (BaF3-L858R cells) (Homo sapiens, UniProt P00533, L858R) = 0.49

Entry Cc1cc2cc(n1)-c1cnn(C)c1OC[C@H]1CCC(C1)CN1/C(=N/C2=O)Nc2ccc(N3CCN(C4CCN(c5cc(F)c([C@H]6CCC(=O)NC6=O)c(F)c5)CC4)C[C@@H]3CO)cc21 [Example 94] : log10 DC50 on EGFR L858R (BaF3-L858R cells) (Homo sapiens, UniProt P00533, L858R) = 0.53

Entry Cc1cc2cc(n1)-c1c(C)nn(C)c1OC[C@H]1CC[C@H](C1)CN1/C(=N/C2=O)Nc2ccc(N3CCC(N(C)C4CN(c5cc(F)c([C@H]6CCC(=O)NC6=O)c(F)c5)C4)CC3)cc21 [Example 142] : log10 DC50 on EGFR L858R (BaF3-L858R cells) (Homo sapiens, UniProt P00533, L858R) = 0.86

Entry Cc1cc2cc(n1)-c1c(C)nn(C)c1OC[C@H]1CCC(C1)CN1/C(=N/C2=O)Nc2ccc(N3CCN([C@@H]4CCN(c5ccc(C6CCC(=O)NC6=O)nc5C)C[C@@H]4F)CC3)cc21 (stereo partly drawn) [Example 79] : log10 DC50 on EGFR L858R (BaF3-L858R cells) (Homo sapiens, UniProt P00533, L858R) = -0.39

Entry Cc1cc2cc(n1)-c1c(C)nn(C)c1OC[C@H]1CC[C@H](C1)CN1/C(=N/C2=O)Nc2ccc(N3CCC(NC4CN(c5c(F)cc(OC6CCC(=O)NC6=O)cc5F)C4)CC3)cc21 (stereo partly drawn) [Example 158] : log10 DC50 on EGFR L858R (BaF3-L858R cells) (Homo sapiens, UniProt P00533, L858R) = 0.57
